Hello, the source for this data is PubChem BioAssay (NCI), in case you need it.

tested on: KM20L2 colon; test: NCI tumour cell line growth inhibition, 48 h
Measured metric: TGI

[[record]]
compound = "CC1(SCC(N)C(=O)O)CC(=O)NC1=O (centres undefined)"
measured_metric = "TGI"
value_observed = "> 100 µM"

[[record]]
compound = "O=c1c2ccccc2sc2nc(CCl)nn12"
measured_metric = "TGI"
value_observed = "38 µM"

[[record]]
compound = "CCCCCCCCCC1CC(=O)Oc2cccc(O)c21 (centres undefined)"
measured_metric = "TGI"
value_observed = "> 100 µM"


Now for a further compound.
Query for KM20L2 colon: what TGI does the record show for O=S1[C@H](c2ccccc2)c2c(-c3ccccc3)sc(-c3ccccc3)c2[C@@H]1c1ccccc1 (some centres undefined) ?
> 100 µM
